- test method notes: Pharmacokinetics after multiple oral administrations to psoriatic patients for 28 days
- Type: in vivo, human
- measurement setup: human, blood; 10 mg q.d. oral, Day 28, Mean ± SD
property: Cmax at 672 h

1. CC[C@@H]1/C=C(\C)C[C@H](C)C[C@H](OC)[C@H]2O[C@@](O)(C(=O)C(=O)N3CCCC[C@H]3C(=O)O[C@H](/C(C)=C/[C@@H]3CC[C@H](Cl)[C@H](OC)C3)[C@H](C)[C@@H](O)CC1=O)[C@H](C)C[C@@H]2OC [pimecrolimus, 33-epichloro-33-desoxy-ascomycin] = 24 ng/mL

----------
- test method notes: in vivo
- Set-up: species or system rats
- measurement setup: rat, skin; 2 oral doses of 25 mg/kg in an interval of 2 hours; 2 hours after the last dosing; read-out: skinlblood concentration ratio
property: Kp at 2 h

1. CC[C@@H]1/C=C(\C)C[C@H](C)C[C@H](OC)[C@H]2O[C@@](O)(C(=O)C(=O)N3CCCC[C@H]3C(=O)O[C@H](/C(C)=C/[C@@H]3CC[C@H](Cl)[C@H](OC)C3)[C@H](C)[C@@H](O)CC1=O)[C@H](C)C[C@@H]2OC [pimecrolimus, 33-epichloro-33-desoxy-ascomycin] = 7.3
